log10 Kd values by entry
- Target or system: T1, extracellular domain of human KLB expressed with C-terminal HA and hexahistidine tags (human, UniProt Q86Z14 1-996)
- T1 construct: also called hKLB-HA-6His; hKLB-HA-6his
- T1 sequence: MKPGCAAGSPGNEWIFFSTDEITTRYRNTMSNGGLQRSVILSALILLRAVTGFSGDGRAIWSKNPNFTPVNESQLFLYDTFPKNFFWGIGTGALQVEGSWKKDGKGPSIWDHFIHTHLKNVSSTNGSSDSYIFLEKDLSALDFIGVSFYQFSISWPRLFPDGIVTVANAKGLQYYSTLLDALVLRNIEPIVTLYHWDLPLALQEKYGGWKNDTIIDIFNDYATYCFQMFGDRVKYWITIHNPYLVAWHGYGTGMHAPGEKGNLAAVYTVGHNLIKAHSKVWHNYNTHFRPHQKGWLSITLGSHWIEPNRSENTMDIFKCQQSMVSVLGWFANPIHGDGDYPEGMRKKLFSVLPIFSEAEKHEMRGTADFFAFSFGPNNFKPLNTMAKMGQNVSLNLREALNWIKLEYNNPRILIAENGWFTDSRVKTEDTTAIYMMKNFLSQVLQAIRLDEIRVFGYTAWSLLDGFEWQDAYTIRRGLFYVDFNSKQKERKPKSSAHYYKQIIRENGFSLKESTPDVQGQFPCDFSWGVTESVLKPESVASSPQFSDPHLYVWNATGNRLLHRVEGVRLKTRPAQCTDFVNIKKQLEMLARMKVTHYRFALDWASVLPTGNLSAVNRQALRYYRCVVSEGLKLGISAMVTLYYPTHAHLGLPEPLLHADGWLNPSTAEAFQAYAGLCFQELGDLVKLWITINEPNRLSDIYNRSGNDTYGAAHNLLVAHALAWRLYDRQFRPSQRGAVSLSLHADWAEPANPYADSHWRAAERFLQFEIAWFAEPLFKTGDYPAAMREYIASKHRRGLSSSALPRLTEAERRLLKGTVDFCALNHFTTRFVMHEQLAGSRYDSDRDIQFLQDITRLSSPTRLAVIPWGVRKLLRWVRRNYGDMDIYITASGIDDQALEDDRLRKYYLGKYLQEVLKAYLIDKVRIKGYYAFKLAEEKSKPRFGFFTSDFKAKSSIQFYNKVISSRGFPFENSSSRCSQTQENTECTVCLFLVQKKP
- Assay: SPR, mAb captured, 37 C
Friendly reminder: values = log10 of Kd, unit nM.

H2aM8092N (antibody, V domains shown, mouse IgG2 Fc (H2aM prefix); also called H2M8092N) VH: QVQLQESGPGLVKPSETLSLTCTVSGGSISSYYWSWIRQPPGKGLDWIGHIYYSGTTYYNPSLKSRVSISLDTSKNQFSLKLSSVTAADTAVYYCARHLRGYSSGREFDYWGQGTLVTVSS VL: DIQMTQSPSSLSASVGGRVSLTCRASQSIFSYLNWYQQKPGKAPKLLIYAASNLQSGVPSRFSGSGSGTDFTLTISSLQPEDFATYSCQQSYNIPYTFGQGTKLEIK	-0.39

For H4H8881P (antibody, V domains shown, human IgG4 Fc (H4H prefix)) VH: QVQLVQSGAEVKKPGASVKVSCKASGYTFTSYVIHWVRQAPGQRLEWMGWSNAANGDTKYSQEFQDRVTFTRDTSASTAYMELSSLRSEDMAVYYCARWNWNYGAFDIWGQGTMVTVSS VL: DIQMTQSPSSLSASVGDRVTITCQASQDINNYLHWYQQKSGKAPNLLIYDASILETGVPSRFSGSGSGTDFTFTISSLQPEDIATYYCQQYDNLPYTFGQGTKLEIK , what is its reported log10 Kd? -0.49

Dear colleague, I am looking for the recorded log10 Kd of the following binder: H2aM8093N (antibody, V domains shown, mouse IgG2 Fc (H2aM prefix)) VH: QVQLVQSGAEVKRPGSSVKVSCKASGDTFSTYAISWVRQAPGQGLEWMGGIIPVFGTTNYAQKFQDRVTITTDESTRTAYMELSSLRSEDTAVYYCAGIAGPDYWGQGTLVTVSS VL: DIQMTQSPSSLSASVGDRVTITCRASQGIRNYLAWFQQKPGKAPKSLIYLATSLQSGVPSKFSGSGSGTDFTLTISSLQPEDFATYYCQQYYSYPWTFGQGTKVEIK -0.65

# get_value(readout='log10 Kd', item= H4H8837P (antibody, V domains shown, human IgG4 Fc (H4H prefix)) VH: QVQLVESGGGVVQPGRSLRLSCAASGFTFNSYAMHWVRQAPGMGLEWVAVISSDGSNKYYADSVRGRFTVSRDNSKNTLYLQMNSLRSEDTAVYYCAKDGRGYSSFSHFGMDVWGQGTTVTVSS VL: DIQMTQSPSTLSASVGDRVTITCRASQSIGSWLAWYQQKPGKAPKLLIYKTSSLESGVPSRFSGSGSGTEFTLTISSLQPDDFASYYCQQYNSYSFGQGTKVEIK ) -0.40

Form field: reported log10 Kd of H4H8880P (antibody, V domains shown, human IgG4 Fc (H4H prefix)) VH: EVQLVESGGGVVQPGGSLRLSCAASGFTFSLYAMSWVRQAPGKGLEWVSAISGSAHGAYYADSVKGRFTISRDNSKNSLYLQMNSLRAEDTAIYYCAKDLVIAVAGTFDYWGQGTLVTVSS VL: DIQMTQSPSSLSASVGDRVTITCRASQIISTYLNWYQQKPGKAPKILIYTASSLKSGVPSRFSGSGSGTDFTLTISSLQPEDFATYYCQQTYSSPRFTFGPGTKVDIK -0.02

Give the measured log10 Kd of H4H8878P (antibody, V domains shown, human IgG4 Fc (H4H prefix)) VH: QVQLVESGGGVVQPGRSLRLSCAASGFTLNTYGMHWIRQTPGKGLEWVSLISYDETKEYYVDSVKGRFTISRDNSKNTLYLQMNSVRVEDTAVYYCAKPLTGSTDYYYGLDVWGQGTTVTVSS VL: DIQMTQSPSYVSASVGDRVIITCRASQDISSWLAWYQQKPGKAPKLLIYVTSSLESGVPSRFSGSGSGTDFTLTISGLQPEDFATYYCQQVKSFPPTFGPGTKVDIK . -0.52

Look at this binder and give its reported log10 Kd. H2aM8109N (antibody, V domains shown, mouse IgG2 Fc (H2aM prefix)) VH: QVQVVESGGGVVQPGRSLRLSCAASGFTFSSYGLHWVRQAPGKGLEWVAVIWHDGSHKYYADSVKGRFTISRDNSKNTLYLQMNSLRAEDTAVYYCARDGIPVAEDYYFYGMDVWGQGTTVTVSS VL: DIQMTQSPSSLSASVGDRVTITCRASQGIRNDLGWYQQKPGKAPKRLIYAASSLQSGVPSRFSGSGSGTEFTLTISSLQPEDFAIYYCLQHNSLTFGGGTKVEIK 0.79
